Data origin, for the record: PubChem BioAssay (NCI)

- Method Description: NCI Yeast Anticancer Drug Screen. Data for the cln2 rad14 strain (AID 165);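 note: 0% = growth equal to vehicle treated cultures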
- Measurement Setup: S. cerevisiae cln2 rad14 strain, at 50.0 µM, active compounds read high
About 79,000 compounds went through this panel and 15% of them were active in at least one assay; those are over-represented in the sample as a whole.
Below: a set of entries, each annotated with reported growth inhibition.

{"Compound": "O=C(COc1cc(Cl)c(Cl)cc1Cl)Nc1c(Cl)cc(Cl)cc1Cl", "growth inhibition [%]": -18.6}
{"Compound": "COc1cc([N+](=O)[O-])c2[nH]c(=O)ccc2c1", "growth inhibition [%]": -7.2}
{"Compound": "CNc1nc(Cl)nc2c1nc(SC)n2-c1ccccc1", "growth inhibition [%]": -13.2}
{"Compound": "Cc1c(-c2ccccc2)nnn1-c1ccc(F)cc1F", "growth inhibition [%]": -10.6}
{"Compound": "CCOC(=O)\\C(C#N)=C/C=C(C)/C(C)=C/Nc1ccc([N+](=O)[O-])cc1[N+](=O)[O-]", "growth inhibition [%]": -5.2}
{"Compound": "O=C(c1no[n+]([O-])c1C(=O)c1csc2ccccc12)c1csc2ccccc12", "growth inhibition [%]": -39.9}
{"Compound": "CO/[N+]([O-])=C\\C(=O)N/C=C/C(=O)O", "growth inhibition [%]": 18.7}
{"Compound": "CO/C=C/CCCNCc1ccccc1", "growth inhibition [%]": 9.7}
{"Compound": "Cc1ccc(CN(C)N=Nc2ccc(C#N)cc2)cc1", "growth inhibition [%]": 12.1}
{"Compound": "NC(=O)N/N=C1\\CCCCC12CCCCC2", "growth inhibition [%]": -16.1}
{"Compound": "O=C(NCCN1CCOCC1)c1ccc(I)cc1", "growth inhibition [%]": 38.4}
{"Compound": "C=CCOC(=O)OCCO", "growth inhibition [%]": -34.5}
{"Compound": "CC(C)C1=CC2=CCC3C(C)(COC(=O)CSC(C)(C)C)CCCC3(C)C2CC1 (stereo not drawn)", "growth inhibition [%]": 18.6}
{"Compound": "C[C@]12CCC3c4ccc(OC(=O)c5ccccc5)cc4CC[C@H]3C1CC[C@@H]2OC(=O)C12OC1CCC2=O (stereo partly drawn)", "growth inhibition [%]": 1.75}
{"Compound": "CC1C2(C)OC(=N)C(C#N)(C(c3ccco3)O2)C1(C#N)C#N (stereo not drawn)", "growth inhibition [%]": 5.95}
{"Compound": "CC(=O)Oc1cc(OC(C)=O)c2c(c1)OC(c1ccc(OC(C)=O)c(OC(C)=O)c1)CC2=O (stereo not drawn)", "growth inhibition [%]": 3.95}
{"Compound": "Cc1ccc(C(C)C)c(OC2OC(C(=O)O)C(O)C(O)C2O)c1 (stereo not drawn)", "growth inhibition [%]": -33.7}
{"Compound": "O=C(NC[N+]12CCO[B-]1(c1ccc(Cl)cc1)OCC2)c1ccccc1O (stereo not drawn)", "growth inhibition [%]": 25}
{"Compound": "Cc1cc(C(=O)CSC(=S)SC(C)(C)C)ccc1Cl", "growth inhibition [%]": 4.45}
{"Compound": "Cc1ncc([N+](=O)[O-])n1CCNC(=O)CCn1ccnc1[N+](=O)[O-]", "growth inhibition [%]": 1.1}
{"Compound": "CCC1(C)C(=O)C(C)(CC)C1=O (stereo not drawn)", "growth inhibition [%]": 0.6}
{"Compound": "COc1cccc(C=Nc2cc(C)ccn2)c1O.COc1cccc(C=Nc2cc(C)ccn2)c1O.[Cu]", "growth inhibition [%]": 14.2}
{"Compound": "CCOC(=O)C1=C(C)NC(=O)NC1c1ccc(OC)cc1OC (stereo not drawn)", "growth inhibition [%]": 18.6}
